tested on: U251 CNS; assay: NCI-60 one-dose screen, 48 h; conditions: 10 µM unless noted
About 83,000 compounds went through this panel and 20% of them were active in at least one assay; those are over-represented in the sample as a whole. Activity calls are given as the source filed them. Rule for the calls: active = growth percent below 10; inactive = the rest.
Outcomes: active, inactive

{"compound": "Oc1ccc(Br)cc1CN1CCN(Cc2ccc(Cl)cc2)CC1", "label_class": "inactive"}
{"compound": "COc1ccc(C2SCC(=O)Nc3c2c(C)nn3-c2nc3ccc(C)cc3s2)cc1O (stereo unspecified)", "label_class": "inactive"}
{"compound": "Cc1ccc(C(=O)C2CN(C)CCC2(O)c2ccc(C)cc2)cc1 (stereo unspecified)", "label_class": "inactive"}
{"compound": "CCOCC1(CCc2ccccc2)C(=O)NC(=S)NC1=O", "label_class": "inactive"}
{"compound": "CCN(CC)CCOc1c(C(C)C)cccc1C(C)C", "label_class": "inactive"}
{"compound": "ClCCN(CCCl)c1ccc(C=NCCc2c[nH]c3ccccc23)cc1", "label_class": "inactive"}
{"compound": "CC(/C=N/N=C(N)N)=N\\N=C(N)N", "label_class": "inactive"}
{"compound": "CCCCCCCCCCCCOc1ccc(C(=O)Oc2ccc(CSP3(=O)OCC4OC(n5cnc6c(N)ncnc65)C(F)C4OP(=O)(O)OCC4OC(n5ccc(=O)[nH]c5=O)C(F)C4O3)cc2)cc1 (stereo unspecified)", "label_class": "inactive"}
{"compound": "COc1c(O)c2c3c(c1OC)-c1ccccc1CC3N(C)CC2 (stereo unspecified)", "label_class": "inactive"}
{"compound": "c1ccc(-c2ccc3ccccc3[o+]2)cc1", "label_class": "inactive"}
{"compound": "O=C(CCc1ccco1)NC1CCN(CC2(c3ccc(Cl)cc3)CCC2)CC1", "label_class": "active"}
{"compound": "Nc1c(Br)cc([N+](=O)[O-])cc1[N+](=O)[O-]", "label_class": "inactive"}
{"compound": "O=S(=O)(F)c1ncnc2nc[nH]c12", "label_class": "inactive"}
{"compound": "CC(C)(C)N(Cc1ccccc1)N=O", "label_class": "inactive"}
{"compound": "OC1CCCCC1N1CCC(c2ccccc2)CC1 (stereo unspecified)", "label_class": "inactive"}
{"compound": "CCOc1ccc(C(O)CN(C)Cc2ccccc2)cc1Cl (stereo unspecified)", "label_class": "inactive"}

###

system: EKVX NSCLC; experiment: NCI-60 one-dose screen, 48 h (100 = growth as untreated, 0 = no growth, -100 = all killed); conditions: 10 µM unless noted
About 83,000 compounds went through this panel and 20% of them were active in at least one assay; those are over-represented in the sample as a whole.

{"compound": "COc1ccc(NP2(=O)OCC(C)(N)CO2)cc1 (stereo unspecified)", "growth [%]": 120}
{"compound": "CCCCNCCc1ccccn1", "growth [%]": 120}
{"compound": "NC(Cc1ccc2c(c1)OCO2)c1ccc2c(c1)OCO2 (stereo unspecified)", "growth [%]": 126}
{"compound": "Nc1c(Br)cc2c3c(cccc13)-c1ccccc1-2", "growth [%]": 53.1}
{"compound": "COP(=S)(OC)Oc1ccc(SC)c(C)c1", "growth [%]": 106}
{"compound": "C=CC(O)CN1CC1CC (stereo unspecified)", "growth [%]": 102}

###

system: HL-60(TB) leukemia; assay: NCI-60 one-dose screen, 48 h (100 = growth as untreated, 0 = no growth, -100 = all killed); details: 10 µM unless noted
About 83,000 compounds went through this panel and 20% of them were active in at least one assay; those are over-represented in the sample as a whole.
Please respond with true when measured growth is strictly beneath 80%, and with false in all other cases.

{"compound": "O=C(/C=C/c1ccc[nH]1)c1ccc(-n2ccc(C(F)(F)F)n2)c(F)c1", "label_class": "true"}
{"compound": "O=C1CC(c2nc3ccccc3s2)CN1C1CCCCC1 (stereo unspecified)", "label_class": "false"}
{"compound": "CCOC(=O)c1c2c(n(-c3ccc(C#N)cc3)c1-c1ccccc1)C=CCC2", "label_class": "false"}
{"compound": "C=C1C(=O)O[C@H]2[C@H]1CC/C(Cn1cc(-c3ccc(OC)cc3)nn1)=C\\CC[C@@]1(C)O[C@@H]21", "label_class": "true"}
{"compound": "O=c1oc2c(cnc3ccccc32)cc1-c1cccc(Cl)c1", "label_class": "false"}
{"compound": "COc1ccc(S(=O)(=O)n2cc(C(=O)C(=O)Nc3ccncc3)c3ccccc32)cc1F", "label_class": "true"}

###

test system: HL-60(TB) leukemia; assay: NCI-60 one-dose screen, 48 h; conditions: 10 µM unless noted
About 83,000 compounds went through this panel and 20% of them were active in at least one assay; those are over-represented in the sample as a whole. Calls of active or inactive are those of the source. How the source made its calls: active means growth percent below 10; inactive means the rest.
Outcomes: active, inactive

{"compound": "N#Cc1nc2c(S(=O)(=O)c3ccc(Cl)cc3)c(N)n(Nc3cccc(Cl)c3)c2nc1C#N", "label_class": "inactive"}
{"compound": "O=S(=O)(c1ccccc1)n1ccc(-c2ccc3c(c2)CCO3)n1", "label_class": "inactive"}
{"compound": "Cc1nc(Nc2ccc(NC(=S)Nc3ccccc3)cc2)nc2nc(SCc3ccccc3)[nH]c(=O)c12", "label_class": "inactive"}
{"compound": "COc1nc2ccc(C)cc2cc1-c1nc2c(cnn2-c2ccc(Br)cc2)c(=O)[nH]1", "label_class": "inactive"}
{"compound": "Cc1ccc(C(C)C)cc1NC(=O)Nc1ccc([N+](=O)[O-])cc1", "label_class": "active"}
{"compound": "O=C1CCCCN1c1ccc(C2=NCCCN2)cc1", "label_class": "inactive"}
{"compound": "CCN(CC)c1nc(SCC(=O)Nc2nc3ccc(C)cc3s2)nc(-c2ccccc2)c1C#N", "label_class": "inactive"}
{"compound": "Cc1cc(/C=C/c2ccc3cc(N(C)C)ccc3[n+]2C)c(C)n1-c1ccccc1", "label_class": "active"}
{"compound": "CN(C)CCCOc1ccc(NC2=C(Cl)C(=O)C(Nc3ccc(OCCCN(C)C)cc3)=C(Cl)C2=O)cc1", "label_class": "active"}
{"compound": "Nc1cc(O)cc2cccnc12", "label_class": "inactive"}
{"compound": "O=C1c2c(c3c4cc(Br)ccc4[nH]c3c3ccc4ccccc4c23)C(=O)N1O", "label_class": "inactive"}
{"compound": "O=C1C=CC(=O)N1c1cc(Cl)c(Cl)cc1Cl", "label_class": "inactive"}
{"compound": "O=S(=O)(O)c1ccc(N=NSc2ccc3ccccc3c2)cc1", "label_class": "inactive"}
{"compound": "O=C1/C(=C/c2ccc(Cl)cc2)CN(C(=O)C(Cl)Cl)C/C1=C\\c1ccc(Cl)cc1", "label_class": "active"}
{"compound": "COc1ccc(-c2ccc3cc(C(=O)Nc4ccc(O)c(C(=O)/C=C/c5cc(OC)c(OC)c(OC)c5)c4)ccc3c2)cc1", "label_class": "inactive"}
{"compound": "CS(=O)(=O)Nc1cccc(-c2cc(-c3ccccc3Cl)c(C#N)c(N)n2)c1", "label_class": "active"}
{"compound": "COc1ccc2[nH]c(=O)c(/C=C/C(=O)c3ccccc3OC)cc2c1", "label_class": "active"}
{"compound": "O=C(O)Cn1ccc2ccccc21", "label_class": "inactive"}
{"compound": "CC(=O)Oc1ccc(Nc2c3ccccc3nc3ccccc23)cc1", "label_class": "active"}
{"compound": "CCOC(=O)c1c(C)oc2ncnc(N3CCN(C(=O)COc4ccc(SC)cc4)CC3)c12", "label_class": "inactive"}
{"compound": "COC(=O)c1oc2c(C(=O)/C=C/c3ccc(OC)cc3)c(OCCCN3CCCCC3)ccc2c1C", "label_class": "active"}
{"compound": "O/N=C1\\c2ccccc2-c2ccc(Br)cc21", "label_class": "inactive"}
{"compound": "COc1ccc2c(c1)C(=O)/C(=C/c1cccc(OCC(=O)c3ccccc3)c1)CC2", "label_class": "inactive"}
{"compound": "COc1ccc(-c2ccc(=O)oc2-c2cc(OC)c(OC)c(OC)c2)cc1O", "label_class": "active"}
{"compound": "Nc1ccccc1-c1cc2c(c3c1[nH]c1ccccc13)CCCCC2", "label_class": "inactive"}
{"compound": "ClC1=C(Br)C(Br)(Br)C(=C(Br)Br)C1(Br)Br", "label_class": "inactive"}
{"compound": "O=C(N/N=C/c1c(Cl)cccc1Cl)c1ccccc1Nc1cccc(C(F)(F)F)c1", "label_class": "inactive"}
{"compound": "CCOC(=O)c1c(C)n2c(=O)cc(C)c3c(OC(C)=O)c(OC(C)=O)cc1c32", "label_class": "active"}
{"compound": "COc1ccc(CN2c3ccccc3Oc3ccccc32)cc1O", "label_class": "inactive"}
{"compound": "O=C1CC(c2ccc(O)c(O)c2)Oc2cc(O)c([C@@H]3O[C@H](CO)[C@@H](O)[C@H](O)[C@H]3O)c(O)c21 (stereo partly specified)", "label_class": "inactive"}
{"compound": "CN1C(=O)NC(=O)C(N=Nc2ccc(Cl)cc2)C1=O (stereo unspecified)", "label_class": "inactive"}
{"compound": "S=C1CCCCCN1", "label_class": "inactive"}
{"compound": "O=C(CSc1nc2c(n1Nc1ccccc1)-c1ccccc1SC2)Nc1nc(-c2ccc(Cl)cc2)cs1", "label_class": "inactive"}
{"compound": "COc1ccc(-c2cc3c(OC)c(OC)c(OC)cc3oc2=O)cc1", "label_class": "inactive"}
{"compound": "CN(C)CCCNC(=O)C(c1ccccc1)c1ccccc1", "label_class": "inactive"}
{"compound": "COc1ccc(C(=O)c2cc(C)c(OC)c(C)c2)cc1OC(=O)CCl", "label_class": "active"}

Where these numbers come from: PubChem BioAssay (NCI)
